// data source = the supplement of paper PMC3545927

# Tested Target: furin, P09958;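 also: purified furin at 1:10 enzyme:substrate in 50 mM HEPES pH 7.5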
# Sequence (P09958 whole entry): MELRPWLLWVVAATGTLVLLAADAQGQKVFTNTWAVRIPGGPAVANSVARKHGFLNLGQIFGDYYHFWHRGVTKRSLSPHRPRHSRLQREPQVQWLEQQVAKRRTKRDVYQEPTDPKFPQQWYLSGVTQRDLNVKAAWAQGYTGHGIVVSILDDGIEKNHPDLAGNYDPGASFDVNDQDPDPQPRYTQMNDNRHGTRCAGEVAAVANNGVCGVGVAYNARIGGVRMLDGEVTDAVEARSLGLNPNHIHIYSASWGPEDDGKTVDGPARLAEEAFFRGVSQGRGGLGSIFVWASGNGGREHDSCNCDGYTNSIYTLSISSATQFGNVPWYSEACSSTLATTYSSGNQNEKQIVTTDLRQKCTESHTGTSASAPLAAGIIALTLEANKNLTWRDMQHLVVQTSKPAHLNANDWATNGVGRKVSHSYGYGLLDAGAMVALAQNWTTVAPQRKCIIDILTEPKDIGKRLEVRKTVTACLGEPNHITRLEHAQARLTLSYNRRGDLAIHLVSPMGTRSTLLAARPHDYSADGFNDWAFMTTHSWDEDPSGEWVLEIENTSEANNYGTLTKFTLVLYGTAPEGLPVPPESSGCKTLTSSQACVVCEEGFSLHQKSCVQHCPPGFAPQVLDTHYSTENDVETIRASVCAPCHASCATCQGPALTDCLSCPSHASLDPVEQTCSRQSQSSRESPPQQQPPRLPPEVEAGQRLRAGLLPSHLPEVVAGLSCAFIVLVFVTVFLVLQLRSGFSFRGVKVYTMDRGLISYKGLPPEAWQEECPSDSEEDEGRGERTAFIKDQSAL
# Experiment Notes: furin cleavage Z-score vs untreated control; higher = more cleavage, active = 3.5 or more, inactive = 1 or less, 8 variable residues between constant flanks
# Assay Context: 7.5 min
The list shows a part of the results. How many sequences the whole screen found active is unknown.
Metric Name: furin cleavage Z-score
Give bare numbers.

CASPARETRSAGNASASA [FS-627]    5.25

Hi, could you look up furin cleavage Z-score for each item in my list?
1. CAVPSTEDLVAGNASASA [HC1097]
2. CAKHSRRRRSAGNASASA [FS-174]
3. CARRQPIPKAAGNASASA [HC191]
4. CARFRRSRRTAGNASASA [FS-2666]
5. CALSRRLKRAAGNASASA [FS-460]
6. CAARRRRKRLAGNASASA [FS-9]

[-2.52, 10.9, -0.467, 7.49, 12.9, 9.78]

Hi, could you look up furin cleavage Z-score for each item in my list?
1. CAEWEVPCHRAGNASASA [HC2448]
2. CAMDARTDRSAGNASASA [FS-1375]
3. CAPEKGGRKPAGNASASA [HC1445]
4. CAFLVGQLFTAGNASASA [HC303]
5. CAMEECSQHLAGNASASA [HC14]
6. CAAPSRRSRSAGNASASA [FS-216]

[1.07, 1.8, 0.667, -0.568, 1.42, 9.21]

Hi, could you look up furin cleavage Z-score for each item in my list?
1. CAVNSWLGNIAGNASASA [HC1573]
2. CASSREKRRSAGNASASA [FS-1285]
3. CARPGRRGRPAGNASASA [FS-492]
4. CAPIIQRLHGAGNASASA [HC1601]
5. CAKPGRRGRAAGNASASA [FS-452]
6. CATTPCSGCWAGNASASA [HC1920]

1. 1.52
2. 0.453
3. -0.496
4. -1.06
5. 6.38
6. -0.899
